# MEASUREMENT DESCRIPTION: NCI Yeast Anticancer Drug Screen. Data for the mec2-1 strain (AID 157)
# CONDITION CONTEXT: S. cerevisiae mec2-1 strain, at 5.0 µM (retest, dose inferred, filed as 0.5)
About 79,000 compounds went through this panel and 15% of them were active in at least one assay; those are over-represented in the sample as a whole. Active and inactive are the calls of the source. Cut-off read from the data, not from the text of the source: active = growth inhibition above about 70%; inactive = the rest.
The categories you may choose from are y (active), n (inactive)

Study these solved cases before continuing.
CCN(CC)CCNC(=O)c1nn(-c2ccc(Cl)cc2)c2c1CCc1cc(OC)ccc1-2 : n
OB(O)c1ccccc1C#Cc1ccccc1B(O)O : n
Nc1cc(F)cc2c1-c1ccc(F)cc1C2 : n

Q: Which outcome was assigned to "NC(=O)N1c2ccccc2C=Cc2ccccc21" in this test?
Ans: n

---

# MEASUREMENT DESCRIPTION: NCI Yeast Anticancer Drug Screen. Data for the rad50EPP+ strain (AID 151);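 note: 0% = growth of vehicle-treated control cultures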
# CONDITION CONTEXT: S. cerevisiae rad50 mutant strain, at 100.0 µM
This is part of a sample that, as a whole, favours compounds with a hit. Of some 79,000 tested, about 15% had one in any assay. Calls of active or inactive are those of the source. No stated cut-off is given here; in the data, active means growth inhibition above about 70%; inactive means the rest.
The categories you may choose from are t for active, f for inactive

C=C1N(C)c2ccc(Cl)cc2C1(C)C : f
O=C1c2cccc3cc([N+](=O)[O-])cc(c23)C(=O)N1CCN1CCCC1 : t
S=c1cn[nH]c2ccc(Br)cc12 : t
Cn1ncc2cc3c(Nc4ccc(Cl)cc4)cccc3nc21 : f
C/C(=N\NC(=S)NC1CCCC1)c1ccccn1 : t

Q: Which outcome was assigned to CC(=O)C1(O)Cc2c(O)c3c(c(O)c2C(OC2CC(N)C(O)C(C)O2)C1)C(=O)c1ccccc1C3=O (centres undefined) in this test?
Ans: t

Q: Which outcome was assigned to "CNc1ccc(Cc2c[nH]c3ccccc23)cc1" in this test?
Ans: f

Q: Which outcome was assigned to "COC(=O)/C=C1/OC(c2ccc(Br)cc2)=C(Br)C1=O" in this test?
Ans: t

Q: Which outcome was assigned to "Cc1ccccc1NC(=O)Cc1csc(N/N=C2\NC(=O)/C(=C/c3cccc([N+](=O)[O-])c3)S2)n1" in this test?
Ans: f

Q: Which outcome was assigned to "O/N=C/C1c2ccccc2-c2ccccc21" in this test?
Ans: f

---

# MEASUREMENT DESCRIPTION: NCI Yeast Anticancer Drug Screen. Data for the wt2 strain (AID 169);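 note: 0% = growth of vehicle-treated yeast cultures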
# CONDITION CONTEXT: S. cerevisiae wt2 strain growth inhibition; at 11.0 µM
This is part of a sample that, as a whole, favours compounds with a hit. Of some 79,000 tested, about 15% had one in any assay. Activity calls are given as the source filed them. Rule as the data show it: active = growth inhibition above about 70%; inactive = the rest.
The categories you may choose from are active, inactive

Study these solved cases before continuing.
CC(=O)C1=C(O)C2(C)c3c(O)c(C)c(O)c(C(C)=O)c3OC2(Sc2ccccc2)CC1=O (stereo unspecified) : inactive
CCCCC(=O)c1c(O)nc2sccn2c1=O : active
O=C1CSC(=S)N1Cc1ccc(Cl)cc1Cl : active
N#C/C(=C/c1c(Cl)cccc1Cl)C(N)=O : inactive

Q: Which outcome was assigned to "CCc1nc(N)nc(N)c1-c1ccc(NCCCCCCN)c([N+](=O)[O-])c1" in this test?
Ans: inactive

Q: Which outcome was assigned to "Cc1ccc(S(=O)(=O)N/N=C/C2(c3ccccc3)c3ccccc3-c3ccccc32)cc1" in this test?
Ans: active

Q: Which outcome was assigned to "CSc1s[s+]c(SC)c1-c1ccccc1" in this test?
Ans: inactive

Q: Which outcome was assigned to "N#C/C(=C/N1C(=O)/C(=C/c2ccc([N+](=O)[O-])cc2)SC1=S)c1nc2ccccc2s1" in this test?
Ans: inactive

Q: Which outcome was assigned to "CC(=O)N1C(=O)/C(=C\C(=O)c2ccc(Cl)cc2)c2ccccc21" in this test?
Ans: active

---

# MEASUREMENT DESCRIPTION: NCI Yeast Anticancer Drug Screen. Data for the sgs1 mgt1 strain (AID 161);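 note: 0% = growth of cultures given vehicle only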
# CONDITION CONTEXT: S. cerevisiae sgs1 mgt1 strain, at 5.0 µM (retest, dose inferred, filed as 0.5), hits give high values
The panel holds about 79,000 compounds, 15% with a hit somewhere; the sample as a whole holds those more often.
REPORTED ENDPOINT: growth inhibition (%)
Give a bare numeral; the unit % is implied.

Examples from the recorded data:
CCCCCCCCCCCCCC(=O)OC(C)CCC1CCCO1 (stereo not given) : 3
Cc1onc(-c2ccccc2Cl)c1C1=N/C(=C/c2cc(Cl)cc(Cl)c2O)C(=O)O1 : -9
C/C(=N\NC(=S)NC1CCCC1)c1ccccn1 : 13
Cc1nc2c(ncn2CCO)c(=O)[nH]1 : 29
COc1ccc(SCc2cc(OC)ccc2OC)cc1 : -27

Q: What value of growth inhibition has been recorded for this entry: "O=C(CNS(=O)(=O)Cc1ccccc1)NNc1ccccc1"
Ans: 28

Q: What value of growth inhibition has been recorded for this entry: "COc1cc(N(C)C)ccc1/C=C\c1ccnc2ccccc12"
Ans: 0

Q: What value of growth inhibition has been recorded for this entry: "CN=C(N)N/N=C(\C)c1ccc2oc3ccc(/C(C)=N/NC(N)=NC)cc3c2c1"
Ans: 56

Q: What value of growth inhibition has been recorded for this entry: "O=C(/C=C/c1cccc(Br)c1)c1ccc(Cl)cc1"
Ans: 4

Q: What value of growth inhibition has been recorded for this entry: "CCCCC(=O)c1c(O)nc2sccn2c1=O"
Ans: 5

---

# MEASUREMENT DESCRIPTION: NCI Yeast Anticancer Drug Screen. Data for the rad52 strain (AID 147);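 note: 0% = growth of vehicle-treated control cultures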
# CONDITION CONTEXT: S. cerevisiae rad52 mutant growth inhibition; at 1.2 µM; hits give high values
Compounds without any hit were thinned out: in the full panel of roughly 79,000, 15% have a hit.
In this section we review reported growth inhibition values for a set of compounds.
Give a bare numeral; the unit % is implied.

Examples from the recorded data:
CCCCCC(=O)c1ccc(O)cc1O : -14
Cc1cc(Cl)nc2nc(Cl)c(N)cc12 : -8

Q: What value of growth inhibition has been recorded for this entry: "CSc1s[s+]c(SC)c1-c1ccccc1"
Ans: 13

Q: What value of growth inhibition has been recorded for this entry: CCCCCCCCCCCCCC(=O)OC(C)CCC1CCCO1 (stereo unspecified)
Ans: -2

Q: What value of growth inhibition has been recorded for this entry: "C/C=C/[P+](c1ccccc1)(c1ccccc1)c1ccccc1"
Ans: 49

Q: What value of growth inhibition has been recorded for this entry: "CO[C@@]12[C@H](COC(N)=O)C3=C(C(=O)C(C)=C(N)C3=O)N1C[C@@H]1N[C@@H]12"
Ans: 7

Q: What value of growth inhibition has been recorded for this entry: "O=c1ccc(N=Nc2ccccc2)ccc1O"
Ans: 0

Q: What value of growth inhibition has been recorded for this entry: "[Pt].c1ccc(P(CCP(c2ccccc2)c2ccccc2)CCP(c2ccccc2)c2ccccc2)cc1"
Ans: -15

Q: What value of growth inhibition has been recorded for this entry: "Clc1cc(-c2ccccc2)nc2ccccc12"
Ans: 6

Q: What value of growth inhibition has been recorded for this entry: COc1cc([C@@H]2c3cc4c(cc3[C@@H](OC3OC5COC(C)OC5C(O)C3O)[C@H]3COC(=O)[C@H]23)OCO4)cc(OC)c1O (stereo partly specified)
Ans: 1

Q: What value of growth inhibition has been recorded for this entry: "S=c1cn[nH]c2ccc(Br)cc12"
Ans: -1

---

# MEASUREMENT DESCRIPTION: NCI Yeast Anticancer Drug Screen. Data for the wt2 strain (AID 169);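 note: 0% = growth of vehicle-treated yeast cultures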
# CONDITION CONTEXT: S. cerevisiae wt2 strain growth inhibition; at 3.7 µM; hits give high values
About 79,000 compounds went through this panel and 15% of them were active in at least one assay; those are over-represented in the sample as a whole.
In this section we review reported growth inhibition values for a set of molecules.
Give a bare numeral; the unit % is implied.

O=C1c2cccc3cc([N+](=O)[O-])cc(c23)C(=O)N1CCN1CCCC1 : 0

Q: What value of growth inhibition has been recorded for this entry: "O=C1CC(=O)N(C2CCCCC2)C(=O)N1c1ccccc1S(=O)(=O)Oc1ccccc1"
Ans: -33

Q: What value of growth inhibition has been recorded for this entry: "CN(N=O)C(=O)N[C@@H](C=O)[C@@H](O)[C@H](O)[C@H](O)CO"
Ans: 0

Q: What value of growth inhibition has been recorded for this entry: "NNC(=S)Nc1cccc(Cl)c1"
Ans: -23

Q: What value of growth inhibition has been recorded for this entry: "O=C1C=CC(=O)N1c1ccc(N2C(=O)C=CC2=O)cc1"
Ans: 91

Q: What value of growth inhibition has been recorded for this entry: CC(=O)C1(O)Cc2c(O)c3c(c(O)c2C(OC2CC(N)C(O)C(C)O2)C1)C(=O)c1ccccc1C3=O (stereo not drawn)
Ans: 27

Q: What value of growth inhibition has been recorded for this entry: Cc1cc(C)c(N2C(=O)CC(Sc3ccccc3N)C2=O)c(C)c1 (stereo not drawn)
Ans: -19

Q: What value of growth inhibition has been recorded for this entry: "Cc1ccc(N=Nc2ccc(O)c(C)c2)cc1"
Ans: 14
